B1: TPPP (parent)
chain: LCKDCQVIDGRNVTVTDVDIVFSK

variants of: B1; assay: protein stability index of a GFP-peptide fusion (GPS, HEK-293T) (PSI 1-6); higher = more stable; conditions: c terminus: a fixed tail appended;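 note: lentivirally expressed fusions sorted by FACS into six bins by GFP to DsRed ratio, PSI derived from sequencing read proportions per bin multiplied by bin number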
Entries and their protein stability index values follow.

# mutation-key, protein stability index
measured = [
    ("K24A", 2.24),
    ("I8L", 2.24),
    ("D19A", 2.77),
    ("C5K", 3.84),
    ("D9M", 2.19),
    ("K24S", 2.44),
    ("D9E", 2.66),
    ("T14Y", 2.15),
    ("N12H", 2.65),
    ("K3H", 2.52),
    ("V15C", 2.62),
    ("I20M", 2.5),
    ("F22A", 2.5),
    ("T16H", 2.44),
    ("R11A", 2.54),
    ("T14E", 3.2),
    ("C5I", 2.6),
    ("T16M", 1.48),
    ("L1C", 1.85),
    ("D17K", 1.77),
    ("Q6Y", 2.4),
    ("C5Q", 3.75),
]
